# experimentalSystem: EphB4 (Homo sapiens (Human))
# Sequence (P54760 16-987): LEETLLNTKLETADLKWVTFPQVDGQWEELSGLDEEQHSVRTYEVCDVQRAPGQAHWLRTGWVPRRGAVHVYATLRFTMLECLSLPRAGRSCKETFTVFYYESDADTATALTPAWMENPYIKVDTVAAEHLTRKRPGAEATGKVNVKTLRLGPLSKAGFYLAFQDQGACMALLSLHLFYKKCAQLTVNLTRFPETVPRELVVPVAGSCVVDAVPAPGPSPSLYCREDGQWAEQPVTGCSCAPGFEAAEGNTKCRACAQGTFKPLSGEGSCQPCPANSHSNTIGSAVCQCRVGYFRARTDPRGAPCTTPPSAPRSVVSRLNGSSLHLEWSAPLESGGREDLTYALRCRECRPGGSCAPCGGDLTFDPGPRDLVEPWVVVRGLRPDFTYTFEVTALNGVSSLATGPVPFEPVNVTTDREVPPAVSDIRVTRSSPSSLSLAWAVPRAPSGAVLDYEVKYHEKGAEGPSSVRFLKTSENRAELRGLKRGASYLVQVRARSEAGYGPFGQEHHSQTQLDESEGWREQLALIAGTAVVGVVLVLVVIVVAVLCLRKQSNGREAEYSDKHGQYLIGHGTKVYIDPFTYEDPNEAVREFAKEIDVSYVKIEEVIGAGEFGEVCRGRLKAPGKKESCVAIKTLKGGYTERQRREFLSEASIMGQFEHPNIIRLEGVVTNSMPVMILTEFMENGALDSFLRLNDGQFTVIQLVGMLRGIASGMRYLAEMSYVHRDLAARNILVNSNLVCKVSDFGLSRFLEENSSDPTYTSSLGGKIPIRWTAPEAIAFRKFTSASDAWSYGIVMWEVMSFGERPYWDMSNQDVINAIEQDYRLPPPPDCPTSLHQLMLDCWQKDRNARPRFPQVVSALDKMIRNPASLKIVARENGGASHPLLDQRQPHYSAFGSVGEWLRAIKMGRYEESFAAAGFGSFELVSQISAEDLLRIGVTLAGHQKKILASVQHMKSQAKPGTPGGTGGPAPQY
# testMethodNotes: EphB4 kinase inhibition in vitro (luciferase-based residual ATP)
# Type: biochemical
# experimentalParameters: 6 uM ATP, poly(glu4tyr), 60 minutes at 37 C
endpointLabel: pIC50
FYI, pIC50 means -log10 of a concentration in mol per litre.

Which pIC50 is reported for this compound? `Cc1cc(-c2cc(O)ccc2Cl)cc2nnc(Nc3ccc(OCCN4CCCC4)cc3)nc12`
7.80

====

# experimentalSystem: Recombinant human c-Src (Homo sapiens (Human))
# Sequence (P12931 whole entry, looked up): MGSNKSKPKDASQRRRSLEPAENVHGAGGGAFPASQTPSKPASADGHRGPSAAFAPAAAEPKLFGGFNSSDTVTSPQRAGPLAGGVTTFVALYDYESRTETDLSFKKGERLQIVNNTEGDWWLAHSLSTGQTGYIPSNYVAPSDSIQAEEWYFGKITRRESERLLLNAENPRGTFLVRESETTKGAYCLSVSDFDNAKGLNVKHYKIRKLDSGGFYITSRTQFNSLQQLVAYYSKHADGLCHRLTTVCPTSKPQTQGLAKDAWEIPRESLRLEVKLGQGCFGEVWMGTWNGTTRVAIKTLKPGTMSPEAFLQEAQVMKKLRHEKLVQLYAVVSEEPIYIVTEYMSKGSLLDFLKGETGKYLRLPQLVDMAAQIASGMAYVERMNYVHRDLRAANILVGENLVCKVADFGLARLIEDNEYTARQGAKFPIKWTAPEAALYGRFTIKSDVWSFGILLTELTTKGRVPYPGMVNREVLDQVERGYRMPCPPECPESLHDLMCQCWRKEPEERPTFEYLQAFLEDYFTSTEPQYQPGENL
# testMethodNotes: Src kinase inhibition in vitro (luciferase-based residual ATP, KinaseGlo)
# experimentalParameters: ATP 3 μM, PTK2 substrate, 90 minutes at room temperature
endpointLabel: pIC50
For clarity, pIC50 is expressed as the negative log10 of concentration in mol/L.

Given the molecule `CC(=O)Nc1cc(-c2c(C)cccc2C)cc2nnc(Nc3ccc(OCCN4CCCC4)cc3)nc12` , what is its reported pIC50?
8.17

Recorded pIC50 for `Cc1cccc(C)c1-c1cc(C)c2nc(Nc3cccc(OCCN4CCN(C)CC4)c3)nnc2c1` , please?
7.40

What does the record list as pIC50 for `Cc1cc(F)ccc1-c1cc2nnc(Nc3ccc(S(=O)(=O)NCCN4CCCC4)cc3)nc2cc1C` ?
7.69

Which pIC50 value belongs to `Cc1cc(-c2cccc(N)c2)cc2nnc(Nc3ccc(S(=O)(=O)NCCN4CCCC4)cc3)nc12` ?
6.55

Data request, read-out pIC50, for `Cc1ccc(C#N)cc1-c1cc2nnc(Nc3ccc(S(=O)(=O)NCCN4CCCC4)cc3)nc2cc1C`
7.91

Which measured pIC50 value corresponds to `Cc1cccc(C)c1-c1cc(NS(C)(=O)=O)c2nc(Nc3ccc(OCCN4CCCC4)cc3)nnc2c1` ?
7.69

# get_value(readout='pIC50', item= `Cc1cccc(C)c1-c1cc(C)c2nc(Nc3cccc(S(=O)(=O)N4CCNCC4)c3)nnc2c1` )
7.32

Quick check: pIC50 of `Cc1cccc(C)c1-c1cc(N)c2nc(Nc3ccc(OCCN4CCCC4)cc3)nnc2c1` ?
8.01

Sample `Cc1cc(-c2c(Cl)cccc2Cl)cc2nnc(Nc3ccc(S(=O)(=O)NCCN4CCCC4)cc3)nc12` — what was its pIC50?
7.85

Find the recorded pIC50 belonging to `Cc1ccccc1-c1cc2nnc(Nc3ccc(S(=O)(=O)NCCN4CCCC4)cc3)nc2cc1C` and report it.
7.99

GET /values?readout=pIC50&item= `Cc1cc2nc(Nc3ccc(OCCN4CCCC4)cc3)nnc2cc1-c1c(C)cccc1C`
7.91

Which value of pIC50 has been reported for `Cc1cc2nc(Nc3ccc(S(=O)(=O)NCCN4CCCC4)cc3)nnc2cc1-c1ccccc1` in the records?
6.50

Which measured pIC50 value corresponds to `Cc1cc2nc(Nc3ccc(S(=O)(=O)NCCN4CCCC4)cc3)nnc2cc1-c1ccccc1CO` ?
7.14

Requested read-out: pIC50. Entry: `Cc1cccc(C)c1-c1cc(C)c2nc(Nc3ccc(S(=O)(=O)N4CCN(C)CC4)cc3)nnc2c1`
6.86

Which measured pIC50 value corresponds to `Cc1cccc(C)c1-c1cc(C)c2nc(Nc3cccc(S(=O)(=O)N4CCN(C)CC4)c3)nnc2c1` ?
6.49

I have this molecule here, `CCOc1ccc(Nc2nnc3cc(-c4c(C)cccc4C)cc(C)c3n2)cc1` , and I need its recorded pIC50.
6.97

Requested field: pIC50. Item: `Cc1cc(-c2ccccn2)cc2nnc(Nc3ccc(OCCN4CCCC4)cc3)nc12`
5.74

Requested field: pIC50. Item: `Clc1cccc(Cl)c1-c1ccc2nc(Nc3ccc(OCCN4CCCC4)cc3)nnc2c1`
6.92

// lookup pIC50 for `Cc1cc2nc(Nc3ccc(S(=O)(=O)NCCN4CCCC4)cc3)nnc2cc1-c1ccccc1C(F)(F)F`
7.18

Consider the molecule shown here: `Cc1cccc(C)c1-c1ccc2nc(Nc3ccc(OCCN4CCCC4)cc3)nnc2c1` What is its recorded pIC50?
7.82

What value of pIC50 has been reported for the following molecule? `Cc1cccc(C)c1-c1cc(C)c2nc(Nc3ccc(OCCCN4CCCC4)cc3)nnc2c1`
7.90

Look at this molecule and give its reported pIC50. `COc1ccc(Nc2nnc3cc(-c4c(C)cccc4C)cc(C)c3n2)cc1`
6.85

Request the reported pIC50 associated with `Cc1ccc(C#N)cc1-c1cc(C)c2nc(Nc3ccc(S(=O)(=O)NCCN4CCCC4)cc3)nnc2c1`
7.60

Find the recorded pIC50 belonging to `COc1ccc(Cl)c(-c2cc(C)c3nc(Nc4ccc(OCCN5CCCC5)cc4)nnc3c2)c1` and report it.
6.10

Name the reported pIC50 value associated with the molecule `Cc1cc(-c2cccc(NS(C)(=O)=O)c2)cc2nnc(Nc3ccc(S(=O)(=O)NCCN4CCCC4)cc3)nc12`
5.54

What pIC50 value was documented for this molecule, `Cc1cc(-c2cc(O)ccc2Cl)cc2nnc(Nc3ccc(OCCN4CCCC4)cc3)nc12` ?
8.80

Would you mind telling me what pIC50 value was observed for `Cc1cccc(C)c1-c1cc(C)c2nc(Nc3ccncc3)nnc2c1` ?
7.44

Returns the measured pIC50 for the input molecule. Input: `Cc1cccc(C)c1-c1cc(C)c2nc(NC(=O)c3ccccc3)nnc2c1`
5.74

Fill in the blank: the reported pIC50 of `Cc1cc(-c2cc(N)ccc2Cl)cc2nnc(Nc3ccc(S(=O)(=O)NCCN4CCCC4)cc3)nc12` is ____.
7.29
